- System: MS2 coat protein
- METHOD: apparent KD of MS2 coat protein; designed switch direction (-1 OFF switch, 1 ON switch): -1; higher = weaker reporter binding
- CONDITION: Eterna round: R95; input ligand: none
Some sequences, each annotated with its measured apparent KD of MS2 coat protein.

- SEQUENCE_ENTRY: "ACUAUUAGAGGAUAUACAGUUUAUUACAUGAGGAUCACCCAUGUUCUUCAAUGUAUAUAAGUAGAAGGCUAAGGAA [EX-5 Malc#3] (puzzle: Exclusion 5)"
  apparent KD of MS2 coat protein (nM): 38.2
- SEQUENCE_ENTRY: "ACACAACAUGAGGAUCACCCAUGUCAGGAUAUGCAGAAGAAGAAGAAGAGAAGAGAGAGCAGAAGGGACAACAC [Ex 1 M3] (puzzle: Exclusion 1)"
  apparent KD of MS2 coat protein (nM): 33.5
- SEQUENCE_ENTRY: "GAGAGGUCAGGAUAUACGGAGAGAGAGAGUAGGUGAGGGUAACAUGAGGAUCACCCAUGUAGAAGGGACUAAGG [JR_Exclu2_Sub075] (puzzle: Exclusion 2)"
  apparent KD of MS2 coat protein (nM): 46.3
- SEQUENCE_ENTRY: "GAUGCUUCGGCAUCUACAAGCUUUUUGCUCGUCUUAUUAACAUGAGGAUCACCCAUGUACAAGAGACCUCAUGUAUU [Sensor v3 - turn-off variant 2 - 12] (puzzle: Sensor v3, turn-off variant 2)"
  apparent KD of MS2 coat protein (nM): 202
- SEQUENCE_ENTRY: "AAGAAACGAGGAUAUACAGUUGAGUGAGAGAGGGUAGUGUUACAUGAGGAUCACCCAUGUAGAAGGCGUGAGAG [JR_Exclu2_Sub089] (puzzle: Exclusion 2)"
  apparent KD of MS2 coat protein (nM): 32.7
- SEQUENCE_ENTRY: "GAGAAACAUGAGGAUCACCCAUGUAAGGAUAUGCUGAAAAUCACGGAUUAAUCGUGCAGCAGAAGGUACAAAGG [Mat - Mod of my Eli Mod D42] (puzzle: Exclusion 1)"
  apparent KD of MS2 coat protein (nM): 143
- SEQUENCE_ENTRY: "UACCUAAUGGGUGUUUCUCACAUGAGGAUCACCCAUGUCACUAGCUUUUUGCUCAUCUUAUCGAAACACCCUUAGUC [Birerage] (puzzle: Sensor v3, turn-off variant 1)"
  apparent KD of MS2 coat protein (nM): 20.8
- SEQUENCE_ENTRY: "UAGUGACAUGAGGAUCACCCAUGUGAGGAUAUAGUGAGAGAAAAAAGGAGAGAGAGGACUAGAAGGCACAGUGA [JR_Exclu1_Sub032] (puzzle: Exclusion 1)"
  apparent KD of MS2 coat protein (nM): 92.7
- SEQUENCE_ENTRY: "GUAUAACUACACGGGCUCAACAUGAGGAUCACCCAUGUCAUAUACGCAAGCUUUUUGCUUGUCUUAUCAGGCCGUGA [Ceatxe] (puzzle: Sensor v3, turn-off variant 1)"
  apparent KD of MS2 coat protein (nM): 12.4
- SEQUENCE_ENTRY: "GCAGGCGUCUAGGCUCGUCUUAUUUUGAGAAGAUUGAUAACAUGAGGAUCACCCAUGUUUGUGGGAGAGUUGGAGUG [JR_SV3TOV2_Sub014] (puzzle: Sensor v3, turn-off variant 2)"
  apparent KD of MS2 coat protein (nM): 209
- SEQUENCE_ENTRY: "CCGAGGUGGCGGUCCUAUGACAUGAGGAUCACCCAUGUACCUCGCCACGAGCUUUUUGCUCACCUUAUAAUUCUCGG [Ragequen] (puzzle: Sensor v3, turn-off variant 1)"
  apparent KD of MS2 coat protein (nM): 19.4
- SEQUENCE_ENTRY: "GGUCAAGAACAGCUCCGCGCUGUCCUUGACCGCUCAUUUACAUGAGGAUCACCCAUGUUUUUUGCUUGUCUUGUUUC [Estetexequ] (puzzle: Sensor v3, turn-off variant 2)"
  apparent KD of MS2 coat protein (nM): 23.8
- SEQUENCE_ENTRY: "GCCGGAGCAGGAUAUCUAAUAUAUCACAUGAGGAUCACCCAUGUCCAGCGAAAGCUGGAGGGAGAAGGGCUCUGGC [Fiskers Ex 5 - 22] (puzzle: Exclusion 5)"
  apparent KD of MS2 coat protein (nM): 132
- SEQUENCE_ENTRY: "UUUAAUUUUUUUUUUUUACAAGCUUUUUGCUCGUCUUAUACAUGAGGAUCACCCAUGUAGAUGGGAGGUAAAUUAUC [JMF 75] (puzzle: Sensor v3, turn-off variant 2)"
  apparent KD of MS2 coat protein (nM): 25.7
- SEQUENCE_ENTRY: "AGUAGUAGUAUCCGAUCCUACAUGAGGAUCACCCAUGUAGCUAGACGUGCACGCGAUGCUCGUCAGACUGCCAGAUG [salish99_TOv1_r3_049] (puzzle: Sensor v3, turn-off variant 1)"
  apparent KD of MS2 coat protein (nM): 128
- SEQUENCE_ENTRY: "UAUCGGCGGACCGAGGCUUUUUGCUCGUCUUAUGCUACAACAUGAGGAUCACCCAUGUGGUGGUGGUCCGUUGUAGU [JL ViennaUCT Bitein mod 9] (puzzle: Sensor v3, turn-off variant 2)"
  apparent KD of MS2 coat protein (nM): 31.8
- SEQUENCE_ENTRY: "ACAAGCUUUUUGUUCGUCUUAUACACUCCUAAUAAGACAACAUGAGGAUCACCCAUGUAACAAACACGAACUCAUGU [Sesor Array 7 - Jieux - Sensor v3, turn-off variant 2] (puzzle: Sensor v3, turn-off variant 2)"
  apparent KD of MS2 coat protein (nM): 195
- SEQUENCE_ENTRY: "UUUAUAAUUUCAAUCUUCGCUGGCAAACUUACGCCAGCCACAUGAGGAUCACCCAUGUUUUUUGUUCGUUUUAUUCU [Xeinzarace] (puzzle: Sensor v3, turn-off variant 2)"
  apparent KD of MS2 coat protein (nM): 22.6
- SEQUENCE_ENTRY: "GUAGAGACAGGAUAUACAUGAGGAUCACCCAUGUAAGGAGGAAGAGAGAGGAGAAGGAGUAGAAGGGUCAGAGG [JR_Exclu3_Sub029] (puzzle: Exclusion 3)"
  apparent KD of MS2 coat protein (nM): 35.2
- SEQUENCE_ENTRY: "CUGAGCAGACGGAGAUCCAACAUGAGGAUCACCCAUGUCUCAAAAGCUUUUUGCUCGUCUUACCCUCCUCUGCUCUC [Ticeisor] (puzzle: Sensor v3, turn-off variant 1)"
  apparent KD of MS2 coat protein (nM): 15.1
